- SYSTEM UNDER TEST: human NKp30 (human) (UniProt O14931)
- Sequence (O14931 19-135 limits assumed): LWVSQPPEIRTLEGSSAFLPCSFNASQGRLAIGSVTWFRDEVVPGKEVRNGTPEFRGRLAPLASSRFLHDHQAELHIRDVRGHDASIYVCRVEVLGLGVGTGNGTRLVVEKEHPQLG
- EXPERIMENTAL PROTOCOL: BLI, immunoligand on anti-hFc tip
MEASURED ATTRIBUTE: koff (s⁻¹)
Give bare numbers, in s⁻¹.

Sample records with koff:
BINDER | koff [s⁻¹]
ΔB7-H6_S3#7-SEED-PGLALA (bispecific antibody, part only; not given: SEED Fc chains and hu225 Fab, part only) chain, part: DLKVEMMAGGTQITPLNDNVTIFCNIFYSQPLNITHMGITWFWKSLTFDKEVKVFEFYGDHQEAFRPGAIVSPWRLKSGDASLRLPGIQLEEAGEYRCEVVVTPYKAQGTVQLEVVASPAS | 0.0525
ΔB7-H6_S2#2-SEED-PGLALA (bispecific antibody, part only; not given: SEED Fc chains and hu225 Fab, part only) chain, part: DLKVEMMAGGTQITPLNDNVTIFCNIFYSQPLNITSMGITWFWKSLTFDKEVKVFEFWDDHQEAFRPGAIVSPWRLKSGDASLRLPGIQLEEAGEYRCEVVVTPYKAQGTVQLEVVASPAS | 0.0737
ΔB7-H6_S3#24-SEED-PGLALA (bispecific antibody, part only; not given: SEED Fc chains and hu225 Fab, part only) chain, part: DLKVEMMAGGTQITPLNDNVTIFCNIFYSQPLNITIMGITWFWKSLTFDKEVKVFEFYGDHQEAFRPGAIVSPWRLKSGDASLRLPGIQLEEAGEYRCEVVVTPYKAQGTVQLEVVASPAS | 0.0104

Consider ΔB7-H6_S3#8-SEED-PGLALA (bispecific antibody, part only; not given: SEED Fc chains and hu225 EGFR Fab, part only) chain, part: DLKVEMMAGGTQITPLNDNVTIFCNIFYSQPLNITHMGITWFWKSLTFDKEVKVFEFWGDHQEAFRPGAIVSPWRLKSGDASLRLPGIQLEEAGEYRCEVIVTPLKAQGTVQLEVVASPAS . Its measured koff is 0.0455
